- target_under_test: BTK enzyme (recombinant full-length BTK, hBTK) (Homo sapiens, UniProt Q06187)
- Construct: recombinant protein from baculovirus-transfected Sf9 cells: full-length BTK, 6HIS-tag cleaved; 6HIS (cleaved yes); made in house; host or cells: baculovirus-transfected Sf9 cells
- Sequence (Q06187 whole entry): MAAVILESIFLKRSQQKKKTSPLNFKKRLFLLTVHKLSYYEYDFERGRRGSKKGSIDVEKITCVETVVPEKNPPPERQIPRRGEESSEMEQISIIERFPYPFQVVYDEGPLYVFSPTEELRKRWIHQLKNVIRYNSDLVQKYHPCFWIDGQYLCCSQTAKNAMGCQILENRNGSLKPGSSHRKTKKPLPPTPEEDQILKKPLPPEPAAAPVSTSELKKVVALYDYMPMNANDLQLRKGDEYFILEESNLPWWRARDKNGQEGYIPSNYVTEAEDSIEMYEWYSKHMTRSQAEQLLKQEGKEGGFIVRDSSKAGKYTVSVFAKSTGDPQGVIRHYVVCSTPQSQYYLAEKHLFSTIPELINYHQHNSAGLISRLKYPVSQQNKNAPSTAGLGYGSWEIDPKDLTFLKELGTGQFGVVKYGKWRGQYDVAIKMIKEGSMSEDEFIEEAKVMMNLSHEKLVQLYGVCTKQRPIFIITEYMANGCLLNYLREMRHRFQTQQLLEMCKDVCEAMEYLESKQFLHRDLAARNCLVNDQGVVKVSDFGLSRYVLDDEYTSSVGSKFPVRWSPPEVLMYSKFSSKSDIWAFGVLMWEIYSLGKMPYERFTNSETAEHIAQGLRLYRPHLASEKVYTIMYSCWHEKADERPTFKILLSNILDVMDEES
- measurement_description: BTK enzyme activity assay, LANCE TR-FRET
- Type: biochemical
- condition_notes: 50 pM hBTK, 2 μM biotin-A5-peptide, 25 μM ATP; 60 min compound & enzyme incubation; read-out: IC50 BTK activity value
pIC50: −log10 of the molar value.
// False strictly below 8 in pIC50; True otherwise

Exam item: Check the entry Cn1nc(NC(=O)c2cc(Cl)c(-c3nc([C@@H]4CC[C@H]5CCC(=O)N5C4)n4c(Cl)cnc(N)c34)cc2F)cc1C(F)(F)F : does pIC50 equal or exceed 8?
Marked response: False

Exam item: Check the entry Nc1nccn2c([C@@H]3CC[C@H]4CCC(=O)N4C3)nc(-c3ccc(C(=O)Nc4cc(C5CCC5)ccn4)cc3)c12 : does pIC50 equal or exceed 8?
Marked response: False

Exam item: Check the entry CCOc1cc(C(=O)Nc2cc(C(F)(F)F)ccn2)c(F)cc1-c1nc([C@@H]2CC[C@H]3CCC(=O)N3C2)n2c(Cl)cnc(N)c12 : does pIC50 equal or exceed 8?
Marked response: True

Exam item: Check the entry CC(C)(F)c1ccnc(NC(=O)c2ccc(-c3nc([C@@H]4CC[C@H]5CCC(=O)N5C4)n4ccnc(N)c34)cc2)c1 : does pIC50 equal or exceed 8?
Marked response: True

Exam item: Check the entry CCn1nc(NC(=O)c2ccc(-c3nc([C@@H]4CC[C@H]5CCC(=O)N5C4)n4ccnc(N)c34)cc2)cc1C(F)(F)F : does pIC50 equal or exceed 8?
Marked response: False

----------
Assignment: determine reported log10 IC50 for the given molecules.
- System: HeLa cells
- measurement_description: [3H]Adenosine uptake functional cellular assay
- Type: cell-based
- condition_notes: Homo sapiens, HeLa, accumulation of [3H]adenosine into HeLa cells; compound range 10 μM to […]; read-out: Adenosine uptake inhibition IC50
Hey, these are logged values: log10 of IC50, µM being the unit before logging.

Exam item: Record Nc1ncc(F)n2c([C@@H]3CC[C@H]4CCC(=O)N4C3)nc(-c3ccc(C(=O)Nc4cc(C(F)(F)F)ccn4)cc3)c12 : what is its log10 IC50 with HeLa cells?
Marked response: -0.54

Exam item: Record CCOc1cc(C(=O)Nc2cc(C(F)(F)F)ccn2)c(F)cc1-c1nc([C@@H]2CC[C@H]3CCC(=O)N3C2)n2c(F)cnc(N)c12 : what is its log10 IC50 with HeLa cells?
Marked response: 0.47

Exam item: Record CC(O)c1ccnc(NC(=O)c2ccc(-c3nc([C@@H]4CC[C@H]5CCC(=O)N5C4)n4ccnc(N)c34)cc2)c1 (stereo partly shown) : what is its log10 IC50 with HeLa cells?
Marked response: 0.73

Exam item: Record Nc1nccn2c([C@@H]3CC[C@H]4CCC(=O)N4C3)nc(-c3ccc(C(=O)Nc4nc(C(F)(F)F)c[nH]4)cc3)c12 : what is its log10 IC50 with HeLa cells?
Marked response: 0.52

Exam item: Record COc1cc(C(=O)Nc2cc(C(F)(F)F)ccn2)ccc1-c1nc([C@@H]2CC[C@H]3CC(C)(C)C(=O)N3C2)n2ccnc(N)c12 : what is its log10 IC50 with HeLa cells?
Marked response: -0.33

Exam item: Record Nc1nccn2c([C@@H]3CC[C@H]4CCC(=O)N4C3)nc(-c3ccc(C(=O)Nc4cc(C(F)(F)F)ccn4)cc3OC3CCCCC3)c12 : what is its log10 IC50 with HeLa cells?
Marked response: 0.14

Exam item: Record COCCN(C(=O)c1ccc(-c2nc([C@@H]3CC[C@H]4CCC(=O)N4C3)n3ccnc(N)c23)c(O)c1)c1cc(C(F)(F)F)ccn1 : what is its log10 IC50 with HeLa cells?
Marked response: 0.25

Exam item: Record CC(F)(F)c1ccnc(NC(=O)c2ccc(-c3nc([C@@H]4CC[C@H]5CCC(=O)N5C4)n4ccnc(N)c34)c(F)c2)c1 : what is its log10 IC50 with HeLa cells?
Marked response: -0.63

Exam item: Record Nc1nccn2c([C@@H]3CC[C@H]4CCC(=O)N4C3)nc(-c3ccc(C(=O)Nc4cc(C(F)(F)F)ccn4)cc3C(=O)O)c12 : what is its log10 IC50 with HeLa cells?
Marked response: 0.71

Exam item: Record Cc1nnc(NC(=O)c2ccc(-c3nc([C@@H]4CC[C@H]5CCC(=O)N5C4)n4ccnc(N)c34)cc2)s1 : what is its log10 IC50 with HeLa cells?
Marked response: 0.56

Exam item: Record CN1CC[C@H]2CC[C@@H](c3nc(-c4ccc(C(=O)Nc5cc(C(F)(F)F)ccn5)cc4)c4c(N)nccn34)CN2C1=O : what is its log10 IC50 with HeLa cells?
Marked response: -0.34

Exam item: Record Cn1nc(NC(=O)c2ccc(-c3nc([C@@H]4CC[C@H]5CCC(=O)N5C4)n4c(Cl)cnc(N)c34)cc2)cc1C(F)(F)F : what is its log10 IC50 with HeLa cells?
Marked response: -0.33

Exam item: Record Cc1cc(NC(=O)c2ccc(-c3nc([C@@H]4CC[C@H]5CCC(=O)N5C4)n4ccnc(N)c34)cc2)nn1C : what is its log10 IC50 with HeLa cells?
Marked response: -0.14
